Test system: NCI-H460 lung
Classes used: label 1 = active, label 0 = inactive

{"Molecule": "CCc1nc2cc(/C=C/C(=O)NO)c(F)cc2c(=O)n1CCc1ccccc1", "Group Label": "label 1"}
{"Molecule": "CN1CCN(c2ccc(NC3=C(Cl)C(=O)c4ncccc4C3=O)cc2C(F)(F)F)CC1", "Group Label": "label 0"}
{"Molecule": "COc1cc(/C=C\\c2cc(/C=C\\c3ccc(O)c(OC)c3)n(C(=O)Nc3ccc(C(F)(F)F)cc3)n2)ccc1O", "Group Label": "label 0"}
{"Molecule": "CCCN(CCC)c1ccc(C=O)c(OC)c1", "Group Label": "label 0"}
{"Molecule": "C=C(C)[C@@H]1CC[C@]2(c3ncc(C)o3)CC[C@]3(C)[C@H](CC[C@@H]4[C@@](C)(CCC#N)[C@H](C(=C)C)CC[C@]43C)[C@@H]12", "Group Label": "label 0"}
{"Molecule": "COc1cc(C)c(N(C)C(=O)CN(C)C)cc1Nc1nc(Nc2cccc(F)c2C(N)=O)c2cc[nH]c2n1", "Group Label": "label 0"}
{"Molecule": "CC(C)NCCCNC1=C(Cl)C(=O)c2ccccc2C1=O", "Group Label": "label 0"}
{"Molecule": "CN([N-]C(=O)CC(=O)[N-]N(C)C(=S)c1ccccc1)C(=S)c1ccccc1.[Cu+2]", "Group Label": "label 1"}
{"Molecule": "CN1CCN(c2ccc3nc(-c4ccc5nc(-c6ccc(C(F)(F)F)cc6)[nH]c5c4)[nH]c3c2)CC1", "Group Label": "label 0"}
{"Molecule": "COc1ccc(-n2nc(C)c3c(Nc4ccc(NC(=O)Nc5cc(C(F)(F)F)ccc5F)cc4)ncnc32)cc1", "Group Label": "label 0"}
{"Molecule": "COc1cc(C(C)c2cc3c(cc2OCCOCCOc2cc4c(cc2C(C)c2cc(OC)c(OC)c(OC)c2)OCO4)OCO3)cc(OC)c1OC (centres undefined)", "Group Label": "label 0"}
{"Molecule": "CC(=O)c1ccc(NCn2nc(-c3ccccc3O)oc2=S)cc1", "Group Label": "label 0"}
{"Molecule": "CCN(CCc1ccc(F)cc1)c1ccc(CO)c(Cl)c1", "Group Label": "label 0"}
{"Molecule": "c1ccc(CN2CCC3(CC2)ONC2=NCCN23)cc1", "Group Label": "label 0"}
